- TARGET_DESC: Nuclear receptor subfamily 1 group I member 2 (Homo sapiens)
- Sequence (O75469 whole entry): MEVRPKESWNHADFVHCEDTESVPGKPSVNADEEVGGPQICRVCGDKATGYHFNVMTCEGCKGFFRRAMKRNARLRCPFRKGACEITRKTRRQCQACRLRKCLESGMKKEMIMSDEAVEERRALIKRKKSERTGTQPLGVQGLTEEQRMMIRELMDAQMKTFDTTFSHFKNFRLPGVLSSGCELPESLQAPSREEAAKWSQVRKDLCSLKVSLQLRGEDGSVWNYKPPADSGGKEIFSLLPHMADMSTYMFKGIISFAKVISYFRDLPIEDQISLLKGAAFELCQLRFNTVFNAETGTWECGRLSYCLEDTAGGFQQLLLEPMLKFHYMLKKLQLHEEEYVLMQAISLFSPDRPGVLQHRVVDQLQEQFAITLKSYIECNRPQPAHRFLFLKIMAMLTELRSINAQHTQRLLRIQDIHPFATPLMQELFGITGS
- METHOD: Transactivation of PXR (unknown origin)
PROPERTY_LABEL: EC20 (µM)

mol=CC1=C(c2ncnn2-c2cccc(C)n2)[C@@H](c2ccc(Cl)c(Cl)c2)n2nc(C(F)(F)F)cc2N1 data_value=0.44
mol=COc1cccc(-n2ncnc2C2=C(C)Nc3cc(C(F)(F)F)nn3[C@@H]2c2ccc(Cl)c(Cl)c2)n1 data_value=0.96
mol=CC1=C(c2ncnn2-c2cc(C)ccn2)[C@@H](c2ccc(Cl)c(Cl)c2)n2nc(C(F)(F)F)cc2N1 data_value=0.44

---

- METHOD: Half life in Sprague-Dawley rat at 1 mg/kg, iv
- Format: ADME, organism-based
- Parameters: dose 1 mg/kg, route intravenous
- EXPERIMENTAL_SETUP: in vivo
PROPERTY_LABEL: half-life (min)

compound=CCOCCn1ccnc1C1=C(C)Nc2cc(C(F)(F)F)nn2[C@@H]1c1ccc(Cl)c(Cl)c1 property_label=half-life data_value=36
compound="CC1=C(c2ncnn2C2CCC(C(F)(F)F)CC2)[C@@H](c2ccc(Cl)c(Cl)c2)n2nc(C(F)(F)F)cc2N1 (single isomer, unassigned; isomer 1)" property_label=half-life data_value=72
compound=CC1=C(c2nccn2C(C)C)[C@@H](c2ccc(Cl)c(Cl)c2)n2nc(C(F)(F)F)cc2N1 property_label=half-life data_value=54
compound=CC1=C(c2ncnn2C2CCC2)[C@@H](c2ccc(Cl)c(Cl)c2)n2nc(C)cc2N1 property_label=half-life data_value=36
compound=CC1=C(C(=O)N2CCN(c3ccc(F)cc3)CC2)[C@@H](c2ccc(Cl)c(Cl)c2)n2nccc2N1 property_label=half-life data_value=36

---

- METHOD: Drug uptake in Sprague-Dawley rat brain at 0.3 mg/kg, iv administered as 5 mins infusion measured after 10 mins
- Assay type: ADME, organism-based
- Parameters: dose 0.3 mg/kg, route intravenous
- EXPERIMENTAL_SETUP: read-out: Drug uptake
PROPERTY_LABEL: concentration at 10 min (nM)

compound="CC1=C(c2ncnn2C2CCC(C(F)(F)F)CC2)[C@@H](c2ccc(Cl)c(Cl)c2)n2nc(C(F)(F)F)cc2N1 (single isomer, unassigned; isomer 1)" property_label="concentration at 10 min" data_value=30

---

- METHOD: Plasma concentration in Sprague-Dawley rat at 0.3 mg/kg, iv administered as 5 mins infusion measured at 5 mins
- Type: ADME, organism-based
- Design: dose 0.3 mg/kg, route intravenous
PROPERTY_LABEL: concentration at 5 min (nM)

molecule="CC1=C(c2ncnn2C2CCC(C(F)(F)F)CC2)[C@@H](c2ccc(Cl)c(Cl)c2)n2nc(C(F)(F)F)cc2N1 (single isomer, unassigned; isomer 1)" data_value=1600
